Tested on: Klebsiella aerogenes ATCC 13048
property_measured: MIC (µM)
Write down the numeric answer in µM and omit the unit.

QUERY: With Klebsiella aerogenes ATCC 13048 as the test system, provide measured MIC for this compound: CC[C@H](C)[C@H](NC(=O)[C@H](CCCCN)NC(=O)[C@H](CCCCN)NC(=O)[C@H](Cc1c[nH]c2ccccc12)NC(=O)[C@@H](NC(=O)[C@H](CCCCN)NC(=O)[C@H](Cc1c[nH]c2ccccc12)NC(=O)[C@@H](N)CC(C)C)[C@@H](C)CC)C(=O)N[C@@H](Cc1c[nH]c2ccccc12)C(=O)N[C@@H](CCCN=C(N)N)C(=O)N[C@H](C(=O)NCC(=O)N[C@@H](Cc1c[nH]c2ccccc12)C(=O)N[C@@H](CC(N)=O)C(=O)N[C@@H](Cc1c[nH]c2ccccc12)C(=O)N[C@@H](CCCN=C(N)N)C(=O)O)C(C)C [LWKIWKKIWRVGWNWR]
RESULT: 28.4

###

Each item that follows carries a reported MIC.
Tested on: Pseudomonas aeruginosa ATCC 27853
Assay: ≥ marks a high value that may be exact or a test limit, other limits are often not marked, values filed in µg/mL are converted to µM
Write down the numeric answer in µM and omit the unit.

CC[C@H](C)[C@H](NC(=O)[C@H](CCCCN)NC(=O)[C@H](CCCCN)NC(=O)[C@H](CC(C)C)NC(=O)[C@H](CCCN=C(N)N)NC(=O)[C@H](CCCCN)NC(=O)[C@H](CCCN=C(N)N)NC(=O)[C@@H](NC(=O)[C@H](CCCCN)NC(=O)[C@H](CCCCN)NC(=O)[C@H](CCCN=C(N)N)NC(=O)[C@H](CC(C)C)NC(=O)[C@H](CCCN=C(N)N)NC(=O)[C@H](CCCN=C(N)N)NC(=O)[C@H](Cc1ccccc1)NC(=O)[C@@H](N)CCCN=C(N)N)[C@@H](C)CC)C(N)=O 256

Moving on to the next compound.
QUERY: Complete the entry with MIC for `CC(C)C[C@H](NC(=O)[C@H](CCCCN)NC(=O)[C@H](CCCCN)NC(=O)[C@H](CC(C)C)NC(=O)[C@H](Cc1c[nH]c2ccccc12)NC(=O)[C@H](CCCCN)NC(=O)[C@H](CC(C)C)NC(=O)[C@@H](N)CC(C)C)C(N)=O`
RESULT: 48

###

System: Pseudomonas aeruginosa ATCC 27853
Experiment: ≥ marks a high value that may be exact or a test limit, other limits are often not marked, values filed in µg/mL are converted to µM
property_measured: MIC (µM)
Write down the numeric answer in µM and omit the unit.

QUERY: Complete the entry with MIC for `CC(C)C[C@H](NC(=O)[C@H](Cc1c[nH]c2ccccc12)NC(=O)[C@H](CCCCN)NC(=O)[C@H](CC(C)C)NC(=O)[C@H](CC(C)C)NC(=O)[C@H](Cc1c[nH]c2ccccc12)NC(=O)[C@@H](N)CCCCN)C(N)=O`
RESULT: 81.1

QUERY: Complete the entry with MIC for `CC[C@H](C)[C@H](NC(=O)CN)C(=O)N[C@@H](CC(C)C)C(=O)N[C@@H](CO)C(=O)N[C@@H](CO)C(=O)N[C@@H](CC(C)C)C(=O)N[C@@H](CC(C)C)C(=O)N[C@@H](CCCCN)C(=O)N[C@@H](CCCCN)C(=O)N[C@@H](CC(C)C)C(=O)N[C@@H](CCCCN)C(=O)N[C@@H](CCCCN)C(=O)N[C@@H](Cc1c[nH]c2ccccc12)C(=O)N[C@H](C(=O)N[C@@H](C)C(=O)N[C@@H](CCCCN)C(N)=O)[C@@H](C)CC`
RESULT: 8

QUERY: Complete the entry with MIC for `CC[C@H](C)[C@H](N)C(=O)N[C@@H](CC(C)C)C(=O)NCC(=O)N[C@@H](CCCCN)C(=O)N[C@@H](CC(C)C)C(=O)N[C@@H](CC(C)C)C(=O)N[C@@H](CCCCN)C(=O)N[C@H](C(=O)N[C@@H](C)C(=O)N[C@@H](C)C(=O)NCC(=O)N[C@@H](CC(C)C)C(=O)N[C@@H](CC(C)C)C(=O)N[C@@H](CO)C(=O)N[C@@H](CC(N)=O)C(=O)N[C@@H](CC(C)C)C(N)=O)[C@@H](C)O`
RESULT: 64
